B1: NCK2 (parent)
chain: YTGPSSSGRFAGREWYYGNVTRHQ

Variants of: B1
method.summary: protein stability index of a GFP-peptide fusion (GPS, HEK-293T) (PSI 1-6); higher = more stable;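 note: lentivirally expressed fusions sorted by FACS into six bins by GFP to DsRed ratio, PSI derived from sequencing read proportions per bin multiplied by bin number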
condition.details: c terminus: a fixed tail appended
parameter.measured: protein stability index

Worked examples, 5 variants total:
>>> result("H23G")
1.88
>>> result("S5C")
1.31
>>> result("Y17R")
2.19
>>> result("T21D")
1.76
>>> result("R13W")
2.01

Need protein stability index, item `N19Y` 1.91

Need protein stability index, item `G8N` 1.71

Need protein stability index, item `R13D` 2.09
